system: UCD52 (cells of a triple-negative basal-like breast cancer xenograft); assay: cell viability (% of vehicle); higher = less cytotoxic; settings: 10 µM; 72 h;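 also: PDX cells carrying CMV promoter-driven luciferase, viability read as total photon flux per second by IVIS imaging following D-luciferin, vehicle control 0.1% DMSO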
Parameter: cell viability. Scope: all listed entries.
Answer with the value's number alone.

Examples from the recorded data:
{"molecule": "Cc1cc(-n2c(=O)[nH]c(=O)n(C)c2=O)ccc1Oc1ccc(SC(F)(F)F)cc1 [Toltrazuril]", "cell viability": 79.5}
{"molecule": "CC(C)Cc1ccc(C(C)C(=O)O)cc1.NCCCCC(N)C(=O)O (stereo not drawn) [Ibuprofen Lysine]", "cell viability": 132}

Then this molecule:
Ask: Using the record for CC[C@@H]1/C=C(\C)C[C@H](C)C[C@H](OC)[C@H]2O[C@@](O)(C(=O)C(=O)N3CCCC[C@H]3C(=O)O[C@H](/C(C)=C/[C@@H]3CC[C@H](Cl)[C@H](OC)C3)[C@H](C)[C@@H](O)CC1=O)[C@H](C)C[C@@H]2OC [Pimecrolimus] , report its cell viability.
Reply: 43.9

---

Reported cell viability values for a set of molecules
test system: HCI03 (cells of an ER-positive luminal breast cancer xenograft); experiment: cell viability (% of vehicle); higher = less cytotoxic; details: 10 µM; 72 h
No unit in the answer, please; the number alone is enough.

Record excerpt, results attached:
{"molecule": "CCC1=CC2CN(C1)Cc1c([nH]c3ccccc13)C(C(=O)OC)(c1cc3c(cc1OC)N(C)C1C(O)(C(=O)OC)C(OC(C)=O)C4(CC)C=CCN5CCC31C54)C2.O=C(O)C(O)C(O)C(=O)O.O=C(O)C(O)C(O)C(=O)O (stereo not given) [Vinorelbine ditartrate]", "tested on": "HCI03", "cell viability": 112}
{"molecule": "COc1cc2c(cc1O)CCC1C2CCC2(C)C(O)CCC12 (stereo not given)", "tested on": "HCI03", "cell viability": 110}
{"molecule": "CCOC(=O)C1=C(COCCN)NC(C)=C(C(=O)OC)C1c1ccccc1Cl.O=S(=O)(O)c1ccccc1 (stereo not given) [Amlodipine Besylate]", "tested on": "HCI03", "cell viability": 115}
{"molecule": "NS(=O)(=O)c1cc2c(cc1Cl)NC(C(Cl)Cl)NS2(=O)=O (stereo not given) [Trichlormethiazide]", "tested on": "HCI03", "cell viability": 164}

Now turn to the next molecule.
Ask: Which cell viability is reported for this molecule? CC1(C)O[C@@H]2C[C@H]3[C@@H]4C[C@H](F)C5=CC(=O)C=C[C@]5(C)[C@@]4(F)[C@@H](O)C[C@]3(C)[C@]2(C(=O)CO)O1 [Fluocinolone Acetonide]
Reply: 154

---

test system: HCI09 (cells of a triple-negative luminal androgen receptor type breast cancer xenograft); experiment: cell viability (% of vehicle); higher = less cytotoxic; conditions: 10 µM; 72 h
Entries and their measured cell viability follow.
Write the number on its own, no unit after it.

{"compound": "Cc1cc(NS(=O)(=O)c2ccc(N)cc2)no1", "cell viability": 107}
{"compound": "NC(CC(=O)N1CCn2c(nnc2C(F)(F)F)C1)Cc1cc(F)c(F)cc1F.O.O=P(=O)OO.[HH] (centres undefined) [Sitagliptin phosphate monohydrate]", "cell viability": 94.1}
{"compound": "CC(C)(C)NC(=O)C1CCC2C3CCC4NC(=O)C=CC4(C)C3CCC12C (centres undefined) [Finasteride]", "cell viability": 103}

Next, consider the following compound.
Ask: // returns reported cell viability for input COc1ccc2c(c1)c(CC(=O)OCC(=O)O)c(C)n2C(=O)c1ccc(Cl)cc1
Reply: 97.6
